The following binders are shown together with reported pEC50 values.
# TEST_TARGET: T1, ITGA2-His (UniProt P17301 30-1132, limits assumed)
# T1 construct: Coated on the ELISA plate at 2 ug/mL; whole entry P17301 is named; also called ITGA2 protein; not shown: His tag
# T1 sequence (looked up): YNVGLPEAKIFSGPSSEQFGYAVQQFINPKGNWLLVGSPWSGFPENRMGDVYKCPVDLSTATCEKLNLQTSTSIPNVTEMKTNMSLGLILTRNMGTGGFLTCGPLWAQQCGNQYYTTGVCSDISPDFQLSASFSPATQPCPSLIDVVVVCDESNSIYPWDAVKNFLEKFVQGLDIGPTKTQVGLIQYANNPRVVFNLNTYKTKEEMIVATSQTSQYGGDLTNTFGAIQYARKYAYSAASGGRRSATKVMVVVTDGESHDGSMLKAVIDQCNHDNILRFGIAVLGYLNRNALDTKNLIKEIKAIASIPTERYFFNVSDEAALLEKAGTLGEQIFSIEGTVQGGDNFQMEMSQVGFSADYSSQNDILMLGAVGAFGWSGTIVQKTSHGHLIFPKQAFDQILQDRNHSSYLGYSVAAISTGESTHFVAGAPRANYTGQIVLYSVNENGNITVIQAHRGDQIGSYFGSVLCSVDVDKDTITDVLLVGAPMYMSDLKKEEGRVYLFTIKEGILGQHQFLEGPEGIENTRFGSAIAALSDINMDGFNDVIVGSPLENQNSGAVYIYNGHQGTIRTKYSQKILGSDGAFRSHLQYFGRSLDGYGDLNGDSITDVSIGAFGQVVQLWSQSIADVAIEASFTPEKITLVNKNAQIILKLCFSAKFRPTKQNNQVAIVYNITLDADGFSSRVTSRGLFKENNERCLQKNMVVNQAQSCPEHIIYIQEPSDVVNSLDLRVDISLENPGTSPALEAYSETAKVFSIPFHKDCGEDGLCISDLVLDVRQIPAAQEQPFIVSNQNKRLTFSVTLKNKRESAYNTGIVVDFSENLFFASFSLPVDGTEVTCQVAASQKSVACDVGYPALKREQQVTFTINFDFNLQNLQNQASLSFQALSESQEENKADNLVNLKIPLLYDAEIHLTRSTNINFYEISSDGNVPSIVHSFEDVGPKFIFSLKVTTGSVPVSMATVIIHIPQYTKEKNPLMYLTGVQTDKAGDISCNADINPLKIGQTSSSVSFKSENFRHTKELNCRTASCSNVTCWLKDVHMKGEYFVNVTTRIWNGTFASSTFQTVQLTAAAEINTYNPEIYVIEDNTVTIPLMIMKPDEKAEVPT
# MEASUREMENT_NOTES: ELISA, plate coated with 2 ug/mL ITGA2-His, anti-human IgG-Fc-HRP detection
pEC50: −log10 of the molar value.
OUTCOME_MEASURE: pEC50

BINDER	OUTCOME_MEASURE	OBSERVED_RESULT
Chimeric mouse antibody FS002-A103 (antibody, human IgG1, kappa, V domains shown, Chimeric; expressed in ExpiCHO-S) VH: QVQLQQSGAELVRPGASVTLSCKASGYTFTDYEMHWVKQTPVHGLEWIGVIDPETGGTTYNQKFNDKATLTADKSSSTAYMDLRSLTSEDSAVYYCSRSGYYVSSYESYAMDYWGQGTSVTVSS VL: DIVMTQSPKSMSMSVGERVTLSCKASENVGTYVSWYQQKPEQSPKLLIYGASTRESGVPDRFTGSGSGTDFTLTISSVQAEDLAVYYCQNDYSYPFTFGSGTKLEIKR	pEC50	10.77
Humanized antibody FS002-A226-H5L3 (antibody, human IgG1, kappa, V domains shown, Humanized IgG1 kappa) VH: QVQLVQSGAEVKKPGASVKVSCKASGYTFTDYEIHWVRQAPGQGLEWMGAIDPETGGTNYAQKFQGRVTMTADTSISTAYMELSRLRSDDTAVYYCSRSGYYVSNYESYAMDYWGQGTTVTVSS VL: DIQITQSPSSMSASVGDRVTITCKASQDIKSYLSWYQQKPGKAPKLLIYDTSNLASGVPSRFSGSGSGTDYTLTISSLQPEDFATYYCQQWSSYPFTFGGGTKLEIKR	pEC50	10.64
Vatelizumab (antibody, V domains shown) VH: QVQLQESGPGLVKPSETLSLTCTVSGFSLTNYGIHWIRQPPGKGLEWLGVIWARGFTNYNSALMSRLTISKDNSKNQVSLKLSSVTAADTAVYYCARANDGVYYAMDYWGQGTLVTVSS VL: DFVMTQSPAFLSVTPGEKVTITCSAQSSVNYIHWYQQKPDQAPKKLIYDTSKLASGVPSRFSGSGSGTDYTFTISSLEAEDAATYYCQQWTTNPLTFGQGTKVEIK	pEC50	11.10

Measured values drawn from patent EP4722245A1 for this set.
